Source: the NIST ThermoML archive (doi:10.1016/j.fluid.2009.08.017)

# Protocol Description: activity coefficient (dimensionless); of the first substance listed, at infinite dilution; xn = mol fraction of the nth substance listed
# Measurement Context: 348.15 K; 101 kPa; Liquid; Chromatography; x1 = 0
Measurement Kind: activity coefficient
Give the figure only, with no unit attached.

| Compound | Measured Number |
| --- | --- |
| CCCO [propan-1-ol] + CCCCCCOCn1cc[n+](C)c1.O=S(=O)([N-]S(=O)(=O)C(F)(F)F)C(F)(F)F | 1.15 |
| C1CCCCCC1 [cycloheptane] + CCCCCCOCn1cc[n+](C)c1.O=S(=O)([N-]S(=O)(=O)C(F)(F)F)C(F)(F)F | 5.02 |
| C1CCCCC1 [cyclohexane] + CCCCCCOCn1cc[n+](C)c1.O=S(=O)([N-]S(=O)(=O)C(F)(F)F)C(F)(F)F | 4.24 |
| O [water] + CCCCCCOCn1cc[n+](C)c1.O=S(=O)([N-]S(=O)(=O)C(F)(F)F)C(F)(F)F | 2.28 |
| C1CCCCCCC1 [cyclooctane] + CCCCCCOCn1cc[n+](COCCCCCC)c1.O=S(=O)([N-]S(=O)(=O)C(F)(F)F)C(F)(F)F | 2.63 |

Lab book: activity coefficient of C=CCCCC [hex-1-ene] + CCCCCCOCn1cc[n+](C)c1.O=S(=O)([N-]S(=O)(=O)C(F)(F)F)C(F)(F)F noted as 4.23

Lab book: activity coefficient of C#CCCCC [1-hexyne] + CCCCCCOCn1cc[n+](C)c1.O=S(=O)([N-]S(=O)(=O)C(F)(F)F)C(F)(F)F noted as 1.98

###

# Protocol Description: activity coefficient (dimensionless); of the first substance listed, at infinite dilution; xn = mol fraction of the nth substance listed
# Measurement Context: 348.15 K; 101 kPa; Liquid; Chromatography; x1 = 0
Measurement Kind: activity coefficient
Give the figure only, with no unit attached.

These recorded examples may help you get a feel for the data.
| Compound | Measured Number |
| --- | --- |
| C1CCOC1 [tetrahydrofuran] + CCCCCCOCn1cc[n+](C)c1.O=S(=O)([N-]S(=O)(=O)C(F)(F)F)C(F)(F)F | 0.491 |
| CCCCO [butan-1-ol] + CCCCCCOCn1cc[n+](COCCCCCC)c1.O=S(=O)([N-]S(=O)(=O)C(F)(F)F)C(F)(F)F | 0.943 |
| c1ccccc1 [benzene] + CCCCCCOCn1cc[n+](COCCCCCC)c1.O=S(=O)([N-]S(=O)(=O)C(F)(F)F)C(F)(F)F | 0.606 |
| C#CCCCC [1-hexyne] + CCCCCCOCn1cc[n+](COCCCCCC)c1.O=S(=O)([N-]S(=O)(=O)C(F)(F)F)C(F)(F)F | 1.19 |
| CC(C)=O [acetone] + CCCCCCOCn1cc[n+](COCCCCCC)c1.O=S(=O)([N-]S(=O)(=O)C(F)(F)F)C(F)(F)F | 0.286 |

Lab book: activity coefficient of C#CCCCCC [1-heptyne] + CCCCCCOCn1cc[n+](COCCCCCC)c1.O=S(=O)([N-]S(=O)(=O)C(F)(F)F)C(F)(F)F noted as 1.4

Lab book: activity coefficient of CCCCC [pentane] + CCCCCCOCn1cc[n+](C)c1.O=S(=O)([N-]S(=O)(=O)C(F)(F)F)C(F)(F)F noted as 5.68
